Biological target: proteasome activity in SKOV3 ovarian cancer cells (Homo sapiens)
Construct: in vivo proteasome activity in SK-N-SH neuroblastoma cells and SKOV3 human ovarian cancer cells; endogenous in cells; host or cells: SKOV3
Sequence (P28074 60-263): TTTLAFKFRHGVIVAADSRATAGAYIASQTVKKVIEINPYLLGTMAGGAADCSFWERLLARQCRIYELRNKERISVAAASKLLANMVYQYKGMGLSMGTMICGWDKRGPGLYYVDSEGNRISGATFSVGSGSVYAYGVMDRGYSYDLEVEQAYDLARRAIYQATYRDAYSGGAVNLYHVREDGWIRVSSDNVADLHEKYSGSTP
Experiment: Proteasome-Glo cell-based luminescent assay
Conditions: SKOV3, 2 hours; read-out: IC50 of proteasomal activity
Measured metric: pIC50
For clarity, pIC50 is expressed as the negative log10 of concentration in mol/L.

Request: Which measured pIC50 value corresponds to CCCCCCC/C=C/C=C/C(=O)N[C@H](C(=O)N[C@H]1C[C@@H](O)CCNC(=O)/C=C/[C@H](C)NC1=O)[C@@H](C)O [glidobactin A] ?
Result: 6.60

* * *

Target: proteasome activity in SK-N-SH neuroblastoma cells (Homo sapiens)
Construct: endogenous in cells; host or cells: SK-N-SH
Sequence (P28074 60-263): as above
Assay: Proteasome-Glo cell-based luminescent assay
Conditions: 2 hours, read-out: IC50 of proteasomal activity
Measured metric: IC50 (nM)
The response must be a number in nM with no trailing unit.

Request: I am curious: what IC50 value has been reported for CCCCCCC/C=C/C=C/C(=O)N[C@H](C(=O)N[C@H]1C[C@@H](O)CCNC(=O)/C=C/[C@H](C)NC1=O)[C@@H](C)O [glidobactin A] ?
Result: 55
